Molecular target: T1, human IL-23 (human, UniProt Q9NPF7 20-189; P29460 23-328)
T1 construct: also called hIL-23; human recombinant IL-23
T1 sequence (looked up) 1: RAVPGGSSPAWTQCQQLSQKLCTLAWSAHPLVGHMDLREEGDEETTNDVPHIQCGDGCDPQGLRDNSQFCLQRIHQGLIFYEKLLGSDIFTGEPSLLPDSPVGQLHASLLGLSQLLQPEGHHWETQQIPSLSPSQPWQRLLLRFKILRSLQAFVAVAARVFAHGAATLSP
T1 sequence (looked up) 2: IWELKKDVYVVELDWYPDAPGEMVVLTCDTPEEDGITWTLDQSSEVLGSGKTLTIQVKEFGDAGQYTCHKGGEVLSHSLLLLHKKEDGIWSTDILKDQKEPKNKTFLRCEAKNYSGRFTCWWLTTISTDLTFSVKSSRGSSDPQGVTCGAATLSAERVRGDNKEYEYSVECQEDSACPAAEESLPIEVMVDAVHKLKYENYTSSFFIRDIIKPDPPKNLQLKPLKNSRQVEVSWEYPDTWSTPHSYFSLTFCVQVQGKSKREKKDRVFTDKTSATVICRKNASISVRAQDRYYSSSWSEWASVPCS
Assay: SPR, Adnectin captured by anti-His mAb, IL-23 injected
Listed below: kon values for each entry.
Answer format: numeric, M⁻¹ s⁻¹ implied, no suffix.

Examples with their reported kon follow.
1490 E02 (designed binder, captured by anti-His mAb) MGVSDVPRDLEVVAATPTSLLISWGHYPMHVRYYRITYGETGGNSPVQEFTVPRTQYTATISGLKPGVDYTITVYAVTYYNEADYSQIPISINYRTEIDKPSQHHHHHH | 97300
1490B03 (designed binder, captured by anti-His mAb) MGVSDVPRDLEVVAATPTSLLISWGHYPLHVRYYRITYGETGGNSPVQEFTVPSRKYTATISGLKPGVDYTITVYAVTYYKEANYREIPISINYRTEIDKPSQHHHHHH | 153000
1571H03 (designed binder, captured by anti-His mAb) MGVSDVPRDLEVVAATPTSLLISWGHYPLHVRYYRITYGETGGNSPVQEFTVPNRVYTATISGLKPGVDYTITVYAVTYYAQEEYHIIPISINYRTEIDKPSQHHHHHH | 118000

Supply recorded kon for 1491A05 (designed binder, captured by anti-His mAb) MGVSDVPRDLEVVAATPTSLLISWGHYPLHVRYYRITYGETGGNSPVQEFTVPSQVYTATISGLKPGVDYTITVYAVTYYAQENYKEIPISINYRTEIDKPSQHHHHHH here. 198000

Supply recorded kon for 1490H08 (designed binder, captured by anti-His mAb) MGVSDVPRDLEVVAATPTSLLISWGHYPLHIRYYRITYGETGGNSPVQEFTVPNTSHTATISGLKPGVDYTITVYAVTYYNEADYSQIPISINYRTEIDKPSQHHHHHH here. 167000

Supply recorded kon for 1571F10 (designed binder, captured by anti-His mAb) MGVSDVPRDLEVVAATPTSLLISWGHYPLHIRYYRITYGETGGNSPVQEFTVPSRYHTATISGLKPGVDYTITVYAVTYYEQVEYREIPISINYRTEIDKPSQHHHHHH here. 268000

Supply recorded kon for 1487C03 (designed binder, captured by anti-His mAb) MGVSDVPRDLEVVAATPTSLLISWGHYPLHIRYYRITYGETGGNSPVQEFTVPKQVYTATISGLKPGVDYTITVYAVTYYNEADYSQIPISINYRTEIDKPSQHHHHHH here. 161000

Supply recorded kon for 1550H05 (designed binder, captured by anti-His mAb) MGVSDVPRDLEVVAATPTSLLISWGHYPLHVRYYRITYGETGGNSPVQEFTVPRQIYTATISGLKPGVDYTITVYAVTYYNEADYSQIPISINYRTEIDKPSQHHHHHH here. 65200
